System: 966289-007-R4-J1-PDC complex spheroid viability
test description: Anticancer human tumor 966289-007-R4-J1-PDC patient-derived pancreatic adenocarcinoma cell line growth inhibition [RAS]; active = viability on the fitted dose curve at most 10% of control; inactive = the rest
test settings: second compound 1 µM; first compound 0.00949 µM
Possible outcomes: active, inactive

compound: CCc1c2c(nc3ccc(O)cc13)-c1cc3c(c(=O)n1C2)COC(=O)[C@]3(O)CC + C=CC(=O)N1CCN(c2nc(OCC3CCCN3C)nc3c(F)c(-c4nc(N)cc(C)c4C(F)(F)F)c(Cl)cc23)C(C)C1
system name: 966289-007-R4-J1-PDC complex spheroid viability
class name: active

compound: CCc1c2c(nc3ccc(O)cc13)-c1cc3c(c(=O)n1C2)COC(=O)[C@]3(O)CC + C#Cc1c(F)ccc2cc(O)cc(-c3ncc4c(N5CC6CCC(C5)N6)nc(OCC56CCCN5CC(F)C6)nc4c3F)c12
system name: 966289-007-R4-J1-PDC complex spheroid viability
class name: active

compound: CC1(C)CCC(Nc2ncc(C(F)(F)F)c(-c3c[nH]c4c(P(C)(C)=O)c(C#N)ccc34)n2)CN1 (centres undefined) + C#Cc1c(F)ccc2cc(O)cc(-c3ncc4c(N5CC6CCC(C5)N6)nc(OCC56CCCN5CC(F)C6)nc4c3F)c12
system name: 966289-007-R4-J1-PDC complex spheroid viability
class name: inactive

compound: CC1(C)CCC(Nc2ncc(C(F)(F)F)c(-c3c[nH]c4c(P(C)(C)=O)c(C#N)ccc34)n2)CN1 (centres undefined) + C=CC(=O)N1CCN(c2nc(OCC3CCCN3C)nc3c(F)c(-c4nc(N)cc(C)c4C(F)(F)F)c(Cl)cc23)C(C)C1
system name: 966289-007-R4-J1-PDC complex spheroid viability
class name: inactive

* * *

Items are presented alongside their recorded viability, T/C.
System: 966289-007-R4-J1-PDC complex spheroid viability
test description: Anticancer human tumor 966289-007-R4-J1-PDC cell line growth inhibition [RAS];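 also: spheroids exposed to agents for one week before readout; percent viability relative to DMSO vehicle control wells as 100%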
test settings: second compound 0.316 µM; first compound 0.316 µM; hits give low values
Description: RAS pathway inhibitors in Combinations in Complex Spheroids A high-throughput screen of multi-cell type tumor spheroids was designed to identify active combinations of RAS pathway inhibitors and targeted small molecules. Complex spheroids include a stromal component modeled by human endothelial cells (HUVEC) and fibroblasts modeled by human mesenchymal stem cells (MSCs). […] Compounds. […] If the clinical Cmax for an agent had not been determined, the highest concentration tested was 10 microM. […]
measure: viability, T/C (%)

compound: Nc1ccn(C2OC(CO)C(O)C2(F)F)c(=O)n1 (stereo not drawn) + C=CC(=O)N1CCN(c2nc(OCC3CCCN3C)nc3c(F)c(-c4nc(N)cc(C)c4C(F)(F)F)c(Cl)cc23)C(C)C1
measure: viability, T/C
reported measurement: 1.52

compound: CC(Nc1ccc2c(c1)OCCn1cc(N3C(=O)OCC3C(F)F)nc1-2)C(N)=O (stereo not drawn) + C#Cc1c(F)ccc2cc(O)cc(-c3ncc4c(N5CC6CCC(C5)N6)nc(OCC56CCCN5CC(F)C6)nc4c3F)c12
measure: viability, T/C
reported measurement: 91.6

compound: O=C(c1ccc(F)c(F)c1Nc1ccc(I)cc1F)N1CC(O)([C@@H]2CCCCN2)C1 + C#Cc1c(F)ccc2cc(O)cc(-c3ncc4c(N5CC6CCC(C5)N6)nc(OCC56CCCN5CC(F)C6)nc4c3F)c12
measure: viability, T/C
reported measurement: 56.4
